So I've got a bunch of sequences here, and I need their total protein half-life in vivo values.
# experiment: total protein half-life in vivo (active degradation + dilution); higher = more stable protein
# settings: wild type E. coli NCM3722; growth: C-lim chemostat; doubling time 12 h
Report as a plain number; the unit h is understood.

Prompt: Fill in total protein half-life in vivo for record "MKPRQRQAAILEYLQKQGKCSVEELAQYFDTTGTTIRKDLVILEHAGTVIRTYGGVVLNKEESDPPIDHKTLINTHKKELIAEAAVSFIHDGDSIILDAGSTVLQMVPLLSRFNNITVMTNSLHIVNALSELDNEQTILMPGGTFRKKSASFHGQLAENAFEHFTFDKLFMGTDGIDLNAGVTTFNEVYTVSKAMCNAAREVILMADSSKFGRKSPNVVCSLESVDKLITDAGIDPAFRQALEEKGIDVIITGESNE"
Response: 12.6

Prompt: Fill in total protein half-life in vivo for record MNNSAFTFQTLHPDTIMDALFEHGIRVDSGLTPLNSYENRVYQFQDEDRRRFVVKFYRPERWTADQILEEHQFALQLVNDEVPVAAPVAFNGQTLLNHQGFYFAVFPSVGGRQFEADNIDQMEAVGRYLGRMHQTGRKQLFIHRPTIGLNEYLIEPRKLFEDATLIPSGLKAAFLKATDELIAAVTAHWREDFTVLRLHGDCHAGNILWRDGPMFVDLDDARNGPAVQDLWMLLNGDKAEQRMQLETIIEAYEEFSEFDTAEIGLIEPLRAMRLVYYLAWLMRRWADPAFPKNFPWLTGEDYWLRQTATFIEQAKVLQEPPLQLTPMY [P0C0K3]
Response: 10.3

Prompt: Fill in total protein half-life in vivo for record "MAQITTTDANEFSSSAEFIPMRGFSNCHLQTMLPRLFRRQVKFTPYWQRLELPDGDFVDLAWSENPAQAQHKPRLVVFHGLEGSLNSPYAHGLVEAAQKRGWLGVVMHFRGCSGEPNRMHRIYHSGETEDASWFLRWLQREFGHAPTAAVGYSLGGNMLACLLAKEGNDLPVDAAVIVSAPFMLEACSYHMEKGFSRVYQRYLLNLLKANAARKLAAYPGTLPINLAQLKSVRRIREFDDLITARIHGYADAIDYYRQCSAMPMLNRIAKPTLIIHAKDDPFMDHQVIPKPESLPPQVEYQLTEHGGHVGFIGGTLLHPQMWLESRIPDWLTTYLEAKSC"
Response: 3.84

Prompt: Fill in total protein half-life in vivo for record MILTDPEWQAVLLSLKVSSLAVLFSLPFGIFFAWLLVRCTFPGKALLDSVLHLPLVLPPVVVGYLLLVSMGRRGFIGERLYDWFGITFAFSWRGAVLAAAVMSFPLMVRAIRLALEGVDVKLEQAARTLGAGRWRVFFTITLPLTLPGIIVGTVLAFARSLGEFGATITFVSNIPGETRTIPSAMYTLIQTPGGESGAARLCIISIALAMISLLISEWLARISRERAGR [P0AF01]
Response: 9.85

Prompt: Fill in total protein half-life in vivo for record "MDYVCSVVFICQSFDLIINRRVISFKKNSLFIVSDKIRRELPVCPSKLRIVDIDKKTCLSFFIDVNNELPGKFTLDKNGYIAEEEPPLSLVFSLFEGIKIADSHSLWLKERLCISLLAMFKKRESVNSFILTNINTFTCKITGIISFNIERQWHLKDIAELIYTSESLIKKRLRDEGTSFTEILRDTRMRYAKKLITSNSYSINVVAQKCGYNSTSYFICAFKDYYGVTPSHYFEKIIGVTDGINKTID"
Response: 6.14
